Test system: TTR
Experimental details: TTR editing in primary human hepatocytes transfected with Spy Cas9 protein and sgRNAs (Table 12)
Format: cell-based
Condition details: primary human hepatocytes transfected with Spy Cas9 protein (RNP) and sgRNAs
Strand notation (5' to 3'): a small letter for the sugar, then the base; units joined by * are phosphorothioate-linked, units joined directly phosphodiester-linked; [ ] holds rarer units or linkages, { } end groups; capitals alone tell only the bases. m = 2'-O-methyl; r = 2'-OH (RNA)
Avg % Edit for assorted molecules
Readout type: Avg % Edit (%)

INSERT INTO assay_data (molecule, readout_type, endpoint_unit, quantitative_readout) VALUES
  ('G000493: TTR sgRNA modified sequence, Human, SEQ ID No. 100; guide sequence of CR003368 (nucleic acid) guide: mA*mA*mG*rUrGrCrCrUrUrCrCrArGrUrArArGrArUrUrGrUrUrUrUrArGrAmGmCmUmAmGmAmAmAmUmAmGmCrArArGrUrUrArArArArUrArArGrGrCrUrArGrUrCrCrGrUrUrArUrCrAmAmCmUmUmGmAmAmAmAmAmGmUmGmGmCmAmCmCmGmAmGmUmCmGmGmUmGmCmU*mU*mU*mU', 'Avg % Edit', '%', 41.40),
  ('G000488: TTR sgRNA modified sequence, Human, SEQ ID No. 95; guide sequence of CR003346 (nucleic acid) guide: mA*mA*mA*rGrUrUrCrUrArGrArUrGrCrUrGrUrCrCrGrGrUrUrUrUrArGrAmGmCmUmAmGmAmAmAmUmAmGmCrArArGrUrUrArArArArUrArArGrGrCrUrArGrUrCrCrGrUrUrArUrCrAmAmCmUmUmGmAmAmAmAmAmGmUmGmGmCmAmCmCmGmAmGmUmCmGmGmUmGmCmU*mU*mU*mU', 'Avg % Edit', '%', 61.27),
  ('G000486: TTR sgRNA modified sequence, Human, SEQ ID No. 93; guide sequence of CR003339 (nucleic acid) guide: mA*mC*mA*rCrArArArUrArCrCrArGrUrCrCrArGrCrArGrUrUrUrUrArGrAmGmCmUmAmGmAmAmAmUmAmGmCrArArGrUrUrArArArArUrArArGrGrCrUrArGrUrCrCrGrUrUrArUrCrAmAmCmUmUmGmAmAmAmAmAmGmUmGmGmCmAmCmCmGmAmGmUmCmGmGmUmGmCmU*mU*mU*mU', 'Avg % Edit', '%', 69.73);
